- ASSAY_EXPLANATION: pKa of photoactive compound in ground and excited state
- Format: physicochemical
- RUN_PARAMETERS: ground state
MEASURED_ATTRIBUTE: pKa
Please give the numeric answer without any surrounding text.

Return reported pKa; argument: O=[N+]([O-])CCc1c(O)ccc2ccccc12 [1-(2-nitroethyl)-2-naphthol]
9.7

---

- ASSAY_EXPLANATION: pKa of photoactive compound in ground and excited state
- Format: physicochemical
- RUN_PARAMETERS: excited state
MEASURED_ATTRIBUTE: pKa
Form: value (number only, do not type unit).

Item under review: O=[N+]([O-])CCc1c(O)ccc2ccccc12 [1-(2-nitroethyl)-2-naphthol] . Reported pKa?
1.9
